Numbers sourced from the supplement of paper PMC6555819.

PBM binding z-score: recorded values
System: PXR:RXRa (NR concentration 270 nM, RXRa partner concentration 90 nM)
Test: PBM binding z-score (relative to random genomic background probes); higher = stronger binding; sequences stand for … in GC…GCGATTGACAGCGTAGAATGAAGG
Would you mind answering with just the numeric figure?

| Seq | Tested on | PBM binding z-score |
| --- | --- | --- |
| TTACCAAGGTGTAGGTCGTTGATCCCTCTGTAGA | PXR:RXRa (NR concentration 270 nM, RXRa partner concentration 90 nM) | 0.444 |
| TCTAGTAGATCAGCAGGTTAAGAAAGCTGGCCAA | PXR:RXRa (NR concentration 270 nM, RXRa partner concentration 90 nM) | 0.255 |
| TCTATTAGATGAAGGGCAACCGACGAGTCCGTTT | PXR:RXRa (NR concentration 270 nM, RXRa partner concentration 90 nM) | 0.796 |

(Q) Entry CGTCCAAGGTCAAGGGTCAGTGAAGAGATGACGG : reported PBM binding z-score = ?
(A) 5.97

(Q) Any idea what PBM binding z-score was measured for TGACCAAGGTGAGCTGAGGTCGTTGATCCAACTC ?
(A) 4.67

(Q) Need PBM binding z-score, item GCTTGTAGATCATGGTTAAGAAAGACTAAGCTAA
(A) -0.334

(Q) I would be grateful if you could share the reported PBM binding z-score for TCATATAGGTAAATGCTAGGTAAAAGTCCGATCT .
(A) 0.727

(Q) Would you mind telling me what PBM binding z-score value was observed for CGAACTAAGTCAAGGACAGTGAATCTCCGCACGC ?
(A) -0.229

(Q) So what does the record say about PBM binding z-score for CCTGCTAGGTCATGGTCAGCTCATCTACAGTATG ?
(A) 1.52

(Q) Entry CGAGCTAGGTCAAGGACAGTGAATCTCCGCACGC : reported PBM binding z-score = ?
(A) 1.01

(Q) Returns the measured PBM binding z-score for the input sequence. Input: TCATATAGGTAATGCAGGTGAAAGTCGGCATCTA
(A) 0.415

(Q) // returns reported PBM binding z-score for input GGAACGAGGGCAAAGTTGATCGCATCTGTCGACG
(A) 0.924

(Q) Please look up its PBM binding z-score: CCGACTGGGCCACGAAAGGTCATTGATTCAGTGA
(A) 5.17

(Q) Fill in: PBM binding z-score of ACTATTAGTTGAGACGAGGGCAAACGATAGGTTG is ___
(A) 1.83

(Q) PBM binding z-score for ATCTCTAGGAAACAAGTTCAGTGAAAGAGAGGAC ?
(A) 1.24

(Q) Which measured PBM binding z-score value corresponds to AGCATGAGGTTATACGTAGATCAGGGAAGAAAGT ?
(A) 0.995

(Q) Param item = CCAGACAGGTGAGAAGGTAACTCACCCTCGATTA ; retrieve measured PBM binding z-score.
(A) 0.325

* * *

Test system: RXRa DBDmut IVT, anti-RXR (DBD mutation: RXRa K156A/R161A, NR concentration 90 nM)
Assay: PBM binding z-score (relative to random genomic background probes); higher = stronger binding; sequences stand for … in GC…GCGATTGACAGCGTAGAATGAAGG
Property: PBM binding z-score; scope: individual sequences
Keep the answer to the number alone.

Sample records with PBM binding z-score:
| Seq | PBM binding z-score |
| --- | --- |
| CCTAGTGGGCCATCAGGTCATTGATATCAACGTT | 0.53 |
| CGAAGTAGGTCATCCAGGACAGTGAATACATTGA | 2.13 |
| GCTAGCAGGCCATTTGGGTCACTGAATGACGGGC | 0.125 |
| GTACTAAGGTGAATAGGTCGTTGATGAGTAGGCG | 0.451 |
| GCTAGTTGGTCAGTAAAAGCTCACACACCGGTCG | 0.421 |

(Q) Item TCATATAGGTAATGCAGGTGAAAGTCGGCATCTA has what recorded PBM binding z-score?
(A) 1.04

(Q) Endpoint output: PBM binding z-score of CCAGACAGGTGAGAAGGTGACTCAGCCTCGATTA . Value?
(A) -0.175

(Q) # query: PBM binding z-score of entry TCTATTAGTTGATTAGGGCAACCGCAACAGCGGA
(A) 0.932

(Q) Form field: reported PBM binding z-score of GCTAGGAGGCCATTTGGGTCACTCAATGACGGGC
(A) 0.724

(Q) Please look up its PBM binding z-score: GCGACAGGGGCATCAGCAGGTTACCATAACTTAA
(A) 0.988

(Q) Given the sequence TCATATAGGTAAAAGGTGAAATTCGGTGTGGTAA , what is its reported PBM binding z-score?
(A) 1.92

(Q) May I ask what PBM binding z-score has been recorded for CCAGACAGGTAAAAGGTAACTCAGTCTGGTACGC ?
(A) -0.178

* * *

We begin with a simple list: items and their reported PBM binding z-score.
System: RARg:RXRa (NR concentration 270 nM, RXRa partner concentration 90 nM)
Assay: PBM binding z-score (relative to random genomic background probes); higher = stronger binding; sequences stand for … in GC…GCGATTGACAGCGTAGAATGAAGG
API doc: respond with a numeric literal and nothing else, no unit.

Recorded PBM binding z-score, per entry:
| Seq | Quantitative readout |
| --- | --- |
| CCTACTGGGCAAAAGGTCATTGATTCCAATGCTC | 5.81 |
| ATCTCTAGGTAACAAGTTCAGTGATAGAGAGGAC | 1.05 |
| TCACGGAGGACACGAAAGGTCAGAGCTCGACATC | 4.96 |
| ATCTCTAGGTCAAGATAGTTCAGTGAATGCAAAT | 4.63 |
| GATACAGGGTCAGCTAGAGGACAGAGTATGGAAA | 6.86 |

(Q) Quick check: PBM binding z-score of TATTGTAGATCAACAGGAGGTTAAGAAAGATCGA ?
(A) 1

(Q) Given ACTAGCAGGCCAAGGGTCACTTAAGATTAGTCCG , state its recorded PBM binding z-score.
(A) 4.12

(Q) Item under review: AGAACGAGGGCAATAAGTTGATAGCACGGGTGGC . Reported PBM binding z-score?
(A) 1.23

(Q) Sample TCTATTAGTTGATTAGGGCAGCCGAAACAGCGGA — what was its PBM binding z-score?
(A) 0.585

(Q) Field request: PBM binding z-score | item: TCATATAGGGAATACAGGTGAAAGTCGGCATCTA
(A) 0.472

(Q) Entry under review: TGAATGAGGTGATAAGATCAGGGAACGTTGCAAA . Reported PBM binding z-score?
(A) 0.599

(Q) Can you share its PBM binding z-score? I mean this sequence: CAAACTAGGTCACGAAAGGTCAATGTCGAATGAC
(A) 7.46

* * *

System: VDR homodimer (NR concentration 270 nM)
Test: PBM binding z-score (relative to random genomic background probes); higher = stronger binding; sequences stand for … in GC…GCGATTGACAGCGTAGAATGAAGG
Listing: PBM binding z-score of selected sequences
Keep the answer to the number alone.

Worked examples follow.
| Seq | PBM binding z-score |
| --- | --- |
| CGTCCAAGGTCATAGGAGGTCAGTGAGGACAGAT | 5.81 |
| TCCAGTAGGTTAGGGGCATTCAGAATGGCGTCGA | 0.877 |
| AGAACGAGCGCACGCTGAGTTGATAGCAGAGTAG | -0.599 |
| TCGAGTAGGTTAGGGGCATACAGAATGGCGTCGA | 0.73 |
| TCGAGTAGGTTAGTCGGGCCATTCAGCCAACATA | -0.149 |
| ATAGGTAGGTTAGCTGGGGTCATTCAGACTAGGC | 5.44 |
| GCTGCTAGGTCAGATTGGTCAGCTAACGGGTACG | 0.117 |
| TCTTGTAGATCAACAGGAGGTTCAGAAAGATCGA | 0.524 |

(Q) What measured PBM binding z-score goes with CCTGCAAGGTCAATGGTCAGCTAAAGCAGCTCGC ?
(A) 2.45

(Q) Look at this sequence and give its reported PBM binding z-score. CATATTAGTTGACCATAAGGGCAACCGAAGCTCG
(A) 1.14

(Q) Would you mind telling me what PBM binding z-score value was observed for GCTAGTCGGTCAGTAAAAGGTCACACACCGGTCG ?
(A) 1.85

(Q) So what does the record say about PBM binding z-score for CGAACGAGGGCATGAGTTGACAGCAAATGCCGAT ?
(A) 1.65

(Q) Entry under review: TCTAGCAGGCCCGAGGGTCACTCAAGAGGTACGG . Reported PBM binding z-score?
(A) 0.268

(Q) What measured PBM binding z-score goes with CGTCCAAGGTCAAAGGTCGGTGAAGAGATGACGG ?
(A) 2.78

(Q) Could you tell me which PBM binding z-score is on file for GTGACTGGGGCAAAGCAGGTTACCATAAGGTTGG ?
(A) 0.275

(Q) Record request: PBM binding z-score value, item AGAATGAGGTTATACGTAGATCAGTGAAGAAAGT
(A) 0.703

(Q) Requested field: PBM binding z-score. Item: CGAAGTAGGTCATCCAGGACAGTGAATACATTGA
(A) 2.37

(Q) Could you share which PBM binding z-score value was measured for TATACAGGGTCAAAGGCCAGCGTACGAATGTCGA ?
(A) 2.16
